Cited source: ChEMBL document CHEMBL1139555

- protocol summary: Plasma cearance of compound was determined in rat
- Type: ADME, organism-based
- setup conditions: read-out: Clp
Please provide measured clearance for the entries that follow.

A selection of reference data follows.
C[C@@H](c1ccc(-c2cccc(C(=O)O)c2)cc1)[C@H](N)C(=O)N1CC[C@H](F)C1.O=C(O)C(F)(F)F = 50.8 mL/min/kg
C[C@@H](c1ccc(-c2cccc(-c3nn[nH]n3)c2)cc1)[C@H](N)C(=O)N1CC[C@H](F)C1.O=C(O)C(F)(F)F = 132 mL/min/kg

Pending molecule:
Fill in the blank: the reported clearance of C[C@@H](c1ccc(-c2cccc(-c3noc(O)n3)c2)cc1)[C@H](N)C(=O)N1CC[C@H](F)C1.O=C(O)C(F)(F)F is ____.
23.9 mL/min/kg

###

Please provide measured half-life for the entries that follow.
- protocol summary: Plasma half-life of compound was determined in rat
- Format: ADME, cell-free
Write your answer as a measured quantity: the number, then the unit.

A selection of reference data follows.
C[C@@H](c1ccc(-c2ccc(F)cc2)cc1)[C@H](N)C(=O)N1CC[C@H](F)C1.O=C(O)C(F)(F)F = 132 min
C[C@@H](c1ccc(-c2cccc(-c3noc(O)n3)c2)cc1)[C@H](N)C(=O)N1CC[C@H](F)C1.O=C(O)C(F)(F)F = 66 min
C[C@@H](c1ccc(-c2cccc(-c3nn[nH]n3)c2)cc1)[C@H](N)C(=O)N1CC[C@H](F)C1.O=C(O)C(F)(F)F = 18 min

Pending molecule:
Fill in the blank: the reported half-life of C[C@@H](c1ccc(-c2cccc(C(=O)O)c2)cc1)[C@H](N)C(=O)N1CC[C@H](F)C1.O=C(O)C(F)(F)F is ____.
24 min

###

- assay target: Dipeptidyl peptidase 4 (Homo sapiens, UniProt P27487)
- Sequence (P27487 whole entry): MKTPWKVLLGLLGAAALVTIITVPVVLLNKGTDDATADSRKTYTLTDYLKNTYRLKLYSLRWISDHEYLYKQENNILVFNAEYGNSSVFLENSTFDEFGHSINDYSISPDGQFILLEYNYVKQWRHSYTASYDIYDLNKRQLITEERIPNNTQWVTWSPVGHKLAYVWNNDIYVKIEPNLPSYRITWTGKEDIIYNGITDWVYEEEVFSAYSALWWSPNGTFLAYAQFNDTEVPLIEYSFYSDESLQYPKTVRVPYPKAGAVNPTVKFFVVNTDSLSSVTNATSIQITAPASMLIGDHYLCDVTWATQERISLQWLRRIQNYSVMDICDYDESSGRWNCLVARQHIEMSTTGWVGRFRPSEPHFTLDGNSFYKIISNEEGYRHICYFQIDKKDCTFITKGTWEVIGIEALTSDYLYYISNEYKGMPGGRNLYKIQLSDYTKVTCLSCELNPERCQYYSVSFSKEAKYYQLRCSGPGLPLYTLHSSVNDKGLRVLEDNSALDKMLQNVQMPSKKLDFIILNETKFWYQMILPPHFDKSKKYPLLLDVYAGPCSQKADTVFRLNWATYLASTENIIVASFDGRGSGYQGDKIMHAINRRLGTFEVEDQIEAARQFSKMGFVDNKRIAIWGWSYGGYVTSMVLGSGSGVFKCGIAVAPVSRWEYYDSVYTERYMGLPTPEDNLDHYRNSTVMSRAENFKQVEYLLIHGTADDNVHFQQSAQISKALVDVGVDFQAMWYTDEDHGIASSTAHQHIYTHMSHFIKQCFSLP
endpoint: IC50 (nM)
Answers are plain numbers, in nM.

C[C@@H](c1ccc(F)cc1C(F)(F)F)[C@H](N)C(=O)N1CC[C@H](F)C1 = 54000
C[C@@H](c1ccc(-c2ccccc2)cc1)[C@H](N)C(=O)N1CC[C@H](F)C1 = 120

Here are 4 compounds. What values of IC50 were reported for them?
1. C[C@@H](c1ccc(-c2cccc(S(C)(=O)=O)c2)cc1)[C@H](N)C(=O)N1CC[C@H](F)C1
2. C[C@@H](c1ccc(S(C)(=O)=O)cc1)[C@H](N)C(=O)N1CC[C@H](F)C1
3. C[C@@H](c1ccc(-c2ccccc2F)cc1)[C@H](N)C(=O)N1CC[C@H](F)C1
4. C[C@@H](c1ccc(F)c(F)c1)[C@H](N)C(=O)N1CC[C@H](F)C1

1. 110
2. 3600
3. 100
4. 1100

Here are 3 compounds. What values of IC50 were reported for them?
1. C[C@@H](c1ccc(-c2cccc(-c3nnco3)c2)cc1)[C@H](N)C(=O)N1CC[C@H](F)C1
2. C[C@@H](c1ccc(-c2cccnc2)cc1)[C@H](N)C(=O)N1CC[C@H](F)C1
3. C[C@@H](c1ccc(-c2cccc(-c3c[nH]c(O)n3)c2)cc1)[C@H](N)C(=O)N1CC[C@H](F)C1

[69, 110, 110]

###

- assay target: Dipeptidyl peptidase 2 (Homo sapiens, UniProt Q9UHL4)
pIC50: −log10 of the molar value.
Output: class label from pIC50. Mapping: lower band: < 5; central band: ≥ 5 and < 6; upper band: ≥ 6

Known results for compounds:
C[C@@H](c1ccc(-c2cccc(S(C)(=O)=O)c2)cc1)[C@H](N)C(=O)N1CC[C@H](F)C1 = central band
C[C@@H](c1ccc(-c2ccncc2)cc1)[C@H](N)C(=O)N1CC[C@H](F)C1 = central band
C[C@@H](c1cccc(Cl)c1)[C@H](N)C(=O)N1CC[C@H](F)C1 = central band
CCOC(=O)c1ccc(-c2ccc([C@H](C)[C@H](N)C(=O)N3CC[C@H](F)C3)cc2)cc1 = upper band
C[C@@H](c1ccc(-c2cccc(-c3nc[nH]n3)c2)cc1)[C@H](N)C(=O)N1CC[C@H](F)C1 = upper band
C[C@@H](c1ccc(-c2ccccn2)cc1)[C@H](N)C(=O)N1CC[C@H](F)C1 = central band

Dear colleague, I would appreciate it if you could identify the bin for C[C@@H](c1ccc(F)cc1C(F)(F)F)[C@H](N)C(=O)N1CC[C@H](F)C1 and reply at your convenience.
lower band

###

Heads up, these molecules all have IC50 values measured for Dipeptidyl peptidase 2 (Homo sapiens).
Give bare numbers, in µM.

C[C@@H](c1ccc(F)c(F)c1)[C@H](N)C(=O)N1CC[C@H](F)C1 = 11
C[C@@H](c1ccc(-c2cncnc2)cc1)[C@H](N)C(=O)N1CC[C@H](F)C1 = 10
C[C@@H](c1ccc(-c2cccc(-c3c[nH]c(O)n3)c2)cc1)[C@H](N)C(=O)N1CC[C@H](F)C1 = 0.83
C[C@@H](c1cc(F)cc(F)c1)[C@H](N)C(=O)N1CC[C@H](F)C1 = 7.8
C[C@@H](c1ccc(Cl)cc1)[C@H](N)C(=O)N1CC[C@H](F)C1 = 5.9
C[C@@H](c1ccc(F)cc1Cl)[C@H](N)C(=O)N1CC[C@H](F)C1 = 46

Here are 2 molecules. What values of IC50 were reported for them?
1. C[C@@H](c1ccc(-c2ccccc2Cl)cc1)[C@H](N)C(=O)N1CC[C@H](F)C1
2. C[C@@H](c1ccc(Cl)cc1F)[C@H](N)C(=O)N1CC[C@H](F)C1

1. 0.38
2. 5.6

Here are 5 molecules. What values of IC50 were reported for them?
1. C[C@@H](c1ccc(N2CCCCC2)cc1)[C@H](N)C(=O)N1CC[C@H](F)C1
2. C[C@@H](c1ccc(-c2cc(F)ccc2F)cc1)[C@H](N)C(=O)N1CC[C@H](F)C1
3. C[C@@H](c1ccc(-c2ccc(NS(C)(=O)=O)cc2)cc1)[C@H](N)C(=O)N1CC[C@H](F)C1
4. C[C@@H](c1ccccc1)[C@H](N)C(=O)N1CC[C@H](F)C1
5. C[C@@H](c1ccccc1F)[C@H](N)C(=O)N1CC[C@H](F)C1

28
1.3
1.8
59
19

Here are 3 molecules. What values of IC50 were reported for them?
1. C[C@@H](c1ccc(-c2cccc(-c3noc(O)n3)c2)cc1)[C@H](N)C(=O)N1CC[C@H](F)C1.O=C(O)C(F)(F)F
2. C[C@@H](c1ccc(Br)cc1)[C@H](N)C(=O)N1CC[C@H](F)C1
3. C[C@@H](c1ccc(-c2ccc(F)cc2F)cc1)[C@H](N)C(=O)N1CC[C@H](F)C1

1. 1.1
2. 3.6
3. 2.5

Here are 2 molecules. What values of IC50 were reported for them?
1. C[C@@H](c1ccc(F)c(Cl)c1)[C@H](N)C(=O)N1CC[C@H](F)C1
2. C[C@@H](c1ccc(-c2cccc(C(=O)O)c2)cc1)[C@H](N)C(=O)N1CC[C@H](F)C1.O=C(O)C(F)(F)F

1. 5.2
2. 9.2
